assay: yeast display, Sf9 membrane polyspecificity reagent, FACS + sequencing; frameworks hold sequencing errors
experimental.readout: polyreactivity (PSR sort gate)

| chain.sequence | experimental.readout | val |
| --- | --- | --- |
| QVQLVESGGGLVQAGGSLRLSCAASGFIFRYNTMGWYRQPPGKERELVAAISVSGARTYYADSVKGRFTLSRDNAKNTVYLQMNSLKPEDTAVYYCNRRYPLYSRYNNDYWGQGTQVTVSS | polyreactivity (PSR sort gate) | high polyreactivity |
| QVRLVESGGGLVQAGGSLRLSCAASGSTFNNYDMGWYRQAPGKERELVAAYADSVKGRFTISRDNAKNTVYLQMNRLKPEDTADYYCAAVREKTLYYLSRFDYWGQGTQVTVSS | polyreactivity (PSR sort gate) | low polyreactivity |
| QVQLVESGGGLVQAGGSLRLTCAASGSIFEGNAMGWYRQAPGKESELVASISGDGSTNYADSVKGRFTISRDNAKNSVYLQMNSLKPEDTAVYYCNADTISEPGFHMDYWGQGNQVTVSS | polyreactivity (PSR sort gate) | low polyreactivity |
| QVQLLESGGGLVQAGGSIRLSFADSAFIFTSYSIGRYRQAPGKEREFVAAISWTGGTYYADSVKGRFTISRDNAKNTVYFLINSLKPEDTAVYYCAVRYKRKGSGYRYYLYVYWGQGTQVTVSS | polyreactivity (PSR sort gate) | high polyreactivity |
| QVQLVESGGGLVQAGGSLRLSCAASGSTRYYMGWYRQAPGKEREMVAAISKSGGTTYYADSVKGRFTISRDNAMTTVYLQMTSLKPEDTAVYYCAAQRSRSYTYDYWGQGTQVTVSS | polyreactivity (PSR sort gate) | high polyreactivity |

---

experiment: yeast display, Sf9 membrane polyspecificity reagent, FACS + sequencing; frameworks hold sequencing errors

| chain.sequence | polyreactivity (PSR sort gate) |
| --- | --- |
| QVQLEESGGGLVQAGGSLRLSCAASGRIFAYYAMGWYRQAPGKERELVAAIRGSGGSTYYADSVKGRFTISRDNAKNTVYLQMNSLKPEDTAVYYCAARTQPKKFYYWGQGTQVTVSS | high polyreactivity |
| QVQLVESGGGLVQAGGSLRLSCAASGSIFPVYAMGWYRQAPGKERELVAAITWRSGSTYYADSVKGRFTISRDNAKNTVYLQMNSLKPDDTAVYYCAKVPTYRFDHWGQGTQVTVSS | high polyreactivity |
| QVQLVESGGGLVQAGGSLRLSCAASGRIFQAYAMGWYRQAPGKERELVASISYRGGITYYADSVKGRFTISRDNAKNTVYLQMNSLKPEDTEVYYCAAGRKGSMYYWGQGTQVTVSW | high polyreactivity |
| QVQLVESGGGLVQAGGSLRLSCAASGRTFGRYVMGWYRQAPGKERELVAAIDGSGGSTYYADSVKGRFTISRDNAKNTVYLQMNSLKPEDTAVYYCNADVGFVGGDYWGQGTQVTVSS | high polyreactivity |
| HVQLVESGGGLVQAGGSLRLSCAASGSIFYYNVMGWYRQAPGKERELVAAIDIDGSTYYADSVKGRFTISRDNAKNTVYLQMNSMKPEDTAVYYCNAQAPYWFSFYYDHKYDYWGQGTQVTVSS | low polyreactivity |
| QVQLVESGGGLVQAGGSLRLSCAASGRTFDSNAMGWYRQAPGKERELVAAISSGGGSTYYADSVKGRFTISRDNAKNTVYLQMNSLKPEDTAVYYCAAVYHYYRGVNYWGQGTQVTVSS | high polyreactivity |
| HAQLQESGGGLVQAGGSLRRSCAASGSIFRFSGMGWYRLAPGKERELVASIGFGSITYYADRVNGRFTISRDNANNTVYLQMNSLKPEDTAVYYCAVQVQDESWLDYWGQGTQVTVSC | low polyreactivity |
| QVQLVESGGGLVQAGGSLRLSCAASGRILYSYAMGWYRQAPGKERELVAAISSTGSTYYADSVKGRFTISRDNAKNTVYLQMNSLKPEDTAVYYCAATFFPYQVHHYYYWGQGTQVTVSS | low polyreactivity |
| QVQLVESGGGLVQAGGSLRLSCAASGSILYTNAMGWYRQAPGKERELVAAITTSGASTYYADSVKGRFTISRDNAKNTVYLQMNSLKPEDTAVYYCAAPSRYRYYWGNYWGQGTQVTVSS | high polyreactivity |
| QVQLEDSGRGLFQAGGSLRLSCAASGSIVALYTMGWYRQAPGKEREFVAGIRTGGSTIYADSVKGRFTISRDNAKNTVYLQMNSRKPEDTPVYYDDWGQGTQVTVSS | low polyreactivity |
| QVQLVESGGGLVQAGGSLRLSCAASGFIFRYYAMGWYRQAPGKETELVAAINRGGGTNYADSVKGRFTISRDNAKNTVYLQLNSLKPEDTAVYYCAAVIRTVRERYGYWGQGTQVTVSS | high polyreactivity |

---

experiment: yeast display, Sf9 membrane polyspecificity reagent, FACS + sequencing; frameworks hold sequencing errors
experimental.readout: polyreactivity (PSR sort gate)

| chain.sequence | val |
| --- | --- |
| QVQLVESGGGLVQAGGSLRLSCAASGRIFSLYAMGWYRQAPGNERELVAAISKRGGSTYYADSVKGRFTISRDNAKNTVYLHMNSLKPEDTAVYYCATQLPFRKPWHDYWGQGTQVTVSS | high polyreactivity |
| QVQLVESGGGLVQAGGSLRLSCAASGLTFGAYAMGWYRQAPGKEREFVAAITYSGGSTNYADSVKGRFTISRDNAKNTVYLQMISLKPEDTAVYYCNAGYYSPWAFYPYDYWGQGTQVTVSS | high polyreactivity |

---

test: yeast display, Sf9 membrane polyspecificity reagent, FACS + sequencing; frameworks hold sequencing errors

| chain.sequence | polyreactivity (PSR sort gate) |
| --- | --- |
| QVQLVESGGALVQARGSLRLSCAASGRTFQIYAKGWDRQGHGKEMELVARITGVGSTNYADSVKGRFTISRDNAKNTVYLQMNSLKPEDTAVYYCAAYWILNNYEMYYWGQGTQVTVSS | low polyreactivity |
| QVQLVESGGGLVQAGGSLRLSCAASGFTFFFNAMGWYRQAPGKERELVASIRSDGDTNYADSVKGRFTISRDNAKNTVYLQMNSLKPEDTAVYYCAKVWYVFRYVSTEYDYWGQGTQVTVSS | high polyreactivity |
| QVQLVESGGGLVQAGGSLRLSCAASGIIFQFYAMGWYRQAPGKERELVAAISRSGGITHYADSVKGRFTISRDNAKNTVYLQMNSLKPEDTAVYYCAAVRQAYPRLDYWGQGTQVTVSS | high polyreactivity |
| QDQLVESGGGLVQAGGSLRLSCAASGSTFQTYAMGWYRQAPGKEREVVAAISFNGGSTYYADSVKGRFTISRDNAKNTVYLQMNSLKPEDTAVYSCAVEYTWASALYDGRHDYWGQGTQVTVSS | high polyreactivity |
| QVQLVESGGGLVQAGGSLRLSCAASGSTFGNYAMGWYRQAPGKEMELVAAISTSGDSTYYADSVKGRFTISRDNAKYTVYLQMNSLKPEDSAVYYCKARGIATGNRHEYWGQGTQVTVSS | low polyreactivity |

---

assay: yeast display, Sf9 membrane polyspecificity reagent, FACS + sequencing; frameworks hold sequencing errors

| chain.sequence | polyreactivity (PSR sort gate) |
| --- | --- |
| QVQLVESGGGLVQAGGSLRLSCAASGFTFNYNAMGWYRQAPGKERELVAAISRSGGRTYYADSVKGRFTISRDNAKNTVYLQMNSLKPEDTAVYYCAADSRTNGYDYWGQGTQVTVSS | high polyreactivity |
| QVQLVESGGGLVQAGGSLRLSCAASGSTFRRNAMGWYRQAPGKERELVAAITRRGTSTYYADSVKGRFTISRDNAKNTVYLQMNSLKPEDTAVYYCNAPRPYQDGKFGYWGQGTQVTVSS | high polyreactivity |
| QVQLVESGGGLVQAGGSLRVSCAASGSIFYYAMGWYRQAPGKERELVASIRSGGSTKFADSVKGRFTISRDNAKNTVYLQMNSLKPEDTAVYYCAARGVIRYTYKSTPYDYWGQGTQVTVSS | high polyreactivity |
| QVQLVESGGGLVQAGGSLRLSCAASGSIFADYTMGWYRQAPGKEREVVAAITSGGSTYYADSVKGRFTISRDNAKNTVYLQMNSLKPEDTAVYYCAAYYGGRGYWGQGTQVTVSS | low polyreactivity |
| QVQLVESGGGLVQAGGSLRLSCAASGRNFPVNAMGWYRQAPGKERELVAAISTTGARTYYADSVKGRFTISRDNAKNTVYLQMNSLKPEDTAVYYCAAKQFSVTLSNYWGQGTQVTVSS | low polyreactivity |
| QVQLVESGGGLVQAGGTLRLSCAASGFTFLDYAMGWYRQAPGKERELVATINWSDVSTYYADSVKGRFTISRDTAKNTVYLQINSLKPEDTAVYYSAVDVLTVGQSNDHWGQGTQVTVSS | high polyreactivity |
| QVQLVESGGGLVQAGGSLRLSCAASGRIFSYNAMGWYRQAPGKERELVAAISSDGSTYYADSVKGRFTISRDNAKNTVYLQMNSLKPVDTAVYYCAARQVVWFDYTTAQVGSYKVNYWGQGTQVTVSS | low polyreactivity |
| QVQLVESGGGLVQAGGSLRLSCAASGFISRYAMGLYRQAPGKERELVAAINRSGGRTYYADSVKGRFTISRDNAKNTVYLQMNSLKPEDTAVYYCAAERSSSYTYDFWGQGTQVTVSS | high polyreactivity |
| QVQLVESGGGLVQAGGSLRLSCAASGRTFKYYAMGWYRQAPGKERELVAAISYNGGSTFYADSVKGRFTFSRDNAKNTVYLQMNSLKPEDTAVYYCAAGPRGTGKYYWGQGTQVTVSS | high polyreactivity |
| QVQLVESGGGLVQAGGSLRLSCAASGSIFVRNTMGWYRQAPGKERELVATISSGGRTNYADSVKGRFTISRDNAKNTVYLQMNSLKPEDTAVYYCNRPRWYGGSPYYYWGQGTQVTVSS | high polyreactivity |
| QVQLVESRGGLVQAGGSLPLSCAPSGRIFVRYAMGWYRQAPGKERELVAAISKSGGTTYYADSVKGRFTISRDNAKNTVYLQMNSLKPEDTAVYYCYALVRRRPGYIRYDYWGQGSQVTVSS | low polyreactivity |
| QVQLVESGGGLVQAGGSLRLSCAASGFTFRGYAMGWYRQAPGKERELVAAISRGGNTKYADSVKGRFTISRDNAKNTVYLQMNSLKPEDTAVYYCASYYFSSSHRYGYWGQGTQVTVSS | high polyreactivity |
| QVQLVESGGGLVQAGGSLRLSCAASGLIFQYYAMGWYRQAPGKERELVAAISGSGVRSYYADSVKGRFTTSRDNAKNTVYLQMNSLKPEDTAVYYCNTLRQDIIRGDYWGQGTHVTVSS | high polyreactivity |
| QVQLVESGGGLVQAGGSLRLSCAASGITFWYYAMGWSRQEPGKERELVAGISRSDSNTYYADSVKGRFTISRDNAKNTLYLQMNSLKPEDTAVYYCSAYYYRRRYGGKYDYWGQGTQVTVSS | high polyreactivity |
| QVQLVESGGGLVQAGGSLRLSCAASGSIFRYYAMGWYRQAPGKESEFVASITYRGGRTYYADSVKGRFTISRDNAKNTVYLQMNSLKPEDTAVYYCAARTRAGAWTSKYHDYWGQGTQVTVSS | high polyreactivity |
| QVQLVESGGGLVQAGGSLRLSCAASGFIFQYYAMGWYRQAPGKERELVAAISWRSTSTYYADSVKGRFTISRDNAKNTVYLQMNSLKPEDTAVYYCAASPGFSIGYEYWGQGTQVTVSS | low polyreactivity |
| QVQLVESGGGLVQAGGSLRISCAASGFILYYYAMGWYRQAPGKERELVAAISRNGGRTYYAVSVKGRFTISRDNAKNTVYLQMNSLKPEDTAVYYCNKGVSRTLSSAYDYWGQVTQVTVSS | high polyreactivity |
| QVQLVESGGGLVQAGGSLRLSCAASGIILDHYAMGWYRQAPGKERELVAAISSGTRTNYADSVKGRFTISRDNAKNTVYLQMNSLKPEDTAVYYCAATIYRRYRSKSSITSYWGQGSQVTVSS | high polyreactivity |
| QVQLVESGGGLVQAGGSLRLSCAASGRTFVKNAMGWYIQAPGKERELVAAISYRGGSTYYADSVKGRFTISRDNAKNTVYLQMNSLKPEDTAVYYCAAQYLYYRYGGFGYWGQGTQVTVSS | high polyreactivity |
| QVQLVESGGGLVQAGGSLRLSCAASGRTFLHNAMGWYRQAPGKERELVAAISSRGGSTYYADSVKGRFTISRDNAKNTVYLQMNSLKPEDTAVYYCAAYIYGTYYYWGQGTQVTVSS | high polyreactivity |
| QVQLVESGGGLVQAGGSLRLSCAASGSIFGYYVMGWYRPAPGKERELVAGISYSGGRTYYADSVKGRFTISRDNAKNTVYLQMNSLQPEDTAVYYCAAEGTTSWWVKYGYWGQGTQVTVSS | low polyreactivity |
